Test: Mouse liver microsomal stability of compound in microsomal protein, PBS buffer pH 7.4, NADPH, glucose-6-phosphate and glucose-6-phosphate dehydrogenase media. Aliquotes were taken at 5 time points and after stopping the reaction, supernatants were analyzed using HPLC coupled with a tandem mass spectrometer. The elimination constant, half-life, and intrinsic clearance are determined as results using linear regression analysis.
Format: ADME, microsomes, Microsome
Settings: liver microsomes
PROPERTY: half-life (h)

Examples with their reported half-life follow.
| INPUT_SMILES | half-life (h) |
| --- | --- |
| COc1cc(Cl)cc([C@H](Nc2ccc3c(c2)CNC3)C(=O)NCC(F)F)c1 | 2.16 |
| O=C(Nc1cc2c(cc1Br)CNC2)c1cc(F)cc2[nH]ncc12 | 0.093 |
| CCCCNC(=O)[C@H](Nc1ccc2c(c1)CNC2)c1cc(Cl)cc(C2CC2)c1 | 1.43 |
| O=C(NCC(F)F)[C@H](Nc1cc2c(cc1Br)CNC2)c1cc(Cl)cc(C2CC2)c1 | 1.21 |
| N#Cc1cccc(-c2nc3c(C(=O)Nc4ccc5c(c4)CNC5)cc(F)cc3[nH]2)c1 | 1.27 |
| O=C(Nc1ccc2c(c1)CNC2)c1cc(F)cc2c1CCC2 | 0.745 |
| COCCNC(=O)[C@H](Nc1ccc2c(c1)CNC2)c1cc(Cl)cc(C2CC2)c1 | 2.38 |
| COc1cc(Cc2c(-c3ccc(F)cc3)noc2C)nc(N2CCNCC2)n1 | 0.695 |

1 = O=C(Nc1ccc2c(c1)CNC2)c1cc(F)cc(-c2cn[nH]c2)c1
2 = O=C(Nc1cc2c(c(-c3c[nH]c(=O)c(F)c3)c1)CNC2)c1cc(F)cc2[nH]ncc12
Lookup: Pick one: 1 or 2 . Which has the bigger half-life number? Please reply using the label of the selected record.
Found: 2

---

Experiment: Human liver microsomal stability of compound in microsomal protein, PBS buffer pH 7.4, NADPH, glucose-6-phosphate and glucose-6-phosphate dehydrogenase media. Aliquotes were taken at 5 time points and after stopping the reaction, supernatants were analyzed using HPLC coupled with a tandem mass spectrometer. The elimination constant, half-life, and intrinsic clearance are determined as results using linear regression analysis.
Format: ADME, microsomes, Microsome
Conditions: microsomes
PROPERTY: Remaining (%)

| INPUT_SMILES | UNITS_SYMBOL | Remaining |
| --- | --- | --- |
| Cc1cc(OCc2ccccc2)ccc1NS(=O)(=O)c1ccc(Cl)cc1C(=O)O | % | 70.445 |
| CNC(=O)[C@H](Nc1cc(CN)cc(-c2nn[nH]n2)c1)c1cc(Cl)cc(C2CC2)c1 | % | 95.463 |
| C=CC[C@H](Nc1cccc(-c2nn[nH]n2)c1)c1cc(Cl)cc(NC(=O)OCc2ccccc2)c1 | % | 34.146 |
| O=C(Nc1cc2c(cc1Br)CNC2)c1cc(F)cc2[nH]ncc12 | % | 83.663 |
| NCc1cccc(NC(=O)c2cc(Cl)cc(CN)c2)c1 | % | 124.297 |
| COc1ccc(-c2nc3c(C(=O)Nc4ccc5c(c4)CNC5)cc(F)cc3[nH]2)nn1 | % | 87.708 |

P = O=C(Nc1cc(Cl)cc(C(=O)Nc2cccc(-c3nnn[nH]3)c2)c1)OCc1ccccc1
Q = O=C(O)c1cc(Cl)ccc1NS(=O)(=O)c1ccc(Oc2ccccc2Cl)cc1
Lookup: Which of these two has the smaller recorded Remaining: P or Q ? Please reply using the label of the selected record.
Found: Q
